# credit: a melting point compilation (Tetko et al.; mined from patent text by program, amines drawn as free bases though some values may be those of a salt)

Below, each entry is listed alongside its reported melting point.

Compound | melting point
COC(=O)c1c(Cl)c(-c2cccc(C(F)(F)F)c2)nn1C | 97 to 98 °C
Cc1c(C(F)(F)F)nc[nH]c1=O | 175 to 176 °C
CSC(SC)=C(C#N)S(=O)(=O)c1ccccc1 | 99 to 101 °C
O=C(NC1CC1)c1cccc(-c2cccc3oc(Cc4cccc(C(F)(F)F)c4)cc23)c1 | 120 to 121 °C
Cc1cccc(-c2ccccc2C(=O)NCCc2ccccc2)c1N1C(=O)c2ccccc2C1=O | 156 °C
CC(C)c1cccc(C(C)C)c1OC(=O)NP(=O)(Oc1ccccc1)Oc1ccccc1 | 132 to 135 °C
COCCOc1cc2ncc(C#N)c(Nc3cc(OC)c(Cl)cc3Cl)c2cc1OCCN1CCOCC1 | 158 to 159 °C
CNc1ccc(OCCN2CCC(Cc3ccc(C)cc3)CC2)cc1 | 136 to 137 °C
O=C(Nc1ccc(-n2nc(C(F)(F)F)cc2C(F)(F)F)cc1F)c1ccc(F)cc1F | 66 to 67 °C
CCC12CCC3=C(CCc4cc(OC)ccc43)C1CCC2O (stereo not given) | 102 to 105 °C
